target: p38 MAPKα isoform (MAPK14) (Homo sapiens); construct: purchased Life Technologies; experiment: p38 MAPKα enzyme inhibition (Z-LYTE FRET); assay type: biochemical; conditions: Table 2A; read-out: IC50 Values for Enzyme Inhibition p38 MAPKα
Sequence (Q16539 whole entry, canonical isoform): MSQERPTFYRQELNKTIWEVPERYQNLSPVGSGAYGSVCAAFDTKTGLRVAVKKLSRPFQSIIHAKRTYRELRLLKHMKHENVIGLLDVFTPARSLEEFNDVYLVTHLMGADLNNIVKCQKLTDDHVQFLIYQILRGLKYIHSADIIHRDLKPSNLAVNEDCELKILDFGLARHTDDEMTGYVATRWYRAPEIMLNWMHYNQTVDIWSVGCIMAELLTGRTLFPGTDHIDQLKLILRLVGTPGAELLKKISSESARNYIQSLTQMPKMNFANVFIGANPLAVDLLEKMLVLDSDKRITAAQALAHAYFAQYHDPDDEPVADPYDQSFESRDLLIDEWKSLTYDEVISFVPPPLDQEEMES
pIC50: −log10 of the molar value.
PROPERTY: pIC50

Consider the following illustrative entries.
{"columns": ["STRUCTURE_SMILES", "pIC50"],
 "data": [
  ["Cc1ccc(-n2nc(C(C)(C)C)cc2NC(=O)Nc2ccc(OCc3ccnc(Nc4cncc(CC(=O)N(C)C)n4)c3)c3ccccc23)cc1", 9.00],
  ["Cc1ccc(-n2nc(C(C)(C)C)cc2NC(=O)Nc2ccc(OCc3ccnc(Nc4cncc(C5CC5)n4)c3)c3ccccc23)cc1", 7.02]
]}

P: Cc1ccc(-n2nc(C(C)(C)C)cc2NC(=O)Nc2ccc(OCc3ccnc(Nc4cncc(C5CCCC5)n4)c3)c3ccccc23)cc1
Q: Cc1ccc(-n2nc(C(C)(C)C)cc2NC(=O)Nc2ccc(OCc3ccnc(Nc4cncc(C)n4)c3)c3ccccc23)cc1
stdin: Could you kindly indicate whether P or Q has the higher pIC50 value? Field: selected label. Fill in the label of the entry you choose.
stdout: Q
